assay: Metabolic stability in mouse liver microsomes; format: in vitro ADME; conditions: mouse, mouse liver microsomes, pH 7.4, MLMs, 120 min incubation
ASSAY ENDPOINT: remaining at 2 h (%)
Give the value in % but do not write % after it.

What remaining at 2 h value was documented for this compound, O=C(O)C(=O)O.O=C(c1ccc(F)cc1)c1ccc(OCCCCCN2CCCCC2)cc1 [Compound 6] ?
66

---

molecular target: hMAO B (Homo sapiens); test: Fluorometric MAO assay, hMAO B inhibition; type: biochemical; details: mean ± SEM of two independent experiments, read-out: hMAO B %Inh. at 1 µM
Sequence (P27338 whole entry): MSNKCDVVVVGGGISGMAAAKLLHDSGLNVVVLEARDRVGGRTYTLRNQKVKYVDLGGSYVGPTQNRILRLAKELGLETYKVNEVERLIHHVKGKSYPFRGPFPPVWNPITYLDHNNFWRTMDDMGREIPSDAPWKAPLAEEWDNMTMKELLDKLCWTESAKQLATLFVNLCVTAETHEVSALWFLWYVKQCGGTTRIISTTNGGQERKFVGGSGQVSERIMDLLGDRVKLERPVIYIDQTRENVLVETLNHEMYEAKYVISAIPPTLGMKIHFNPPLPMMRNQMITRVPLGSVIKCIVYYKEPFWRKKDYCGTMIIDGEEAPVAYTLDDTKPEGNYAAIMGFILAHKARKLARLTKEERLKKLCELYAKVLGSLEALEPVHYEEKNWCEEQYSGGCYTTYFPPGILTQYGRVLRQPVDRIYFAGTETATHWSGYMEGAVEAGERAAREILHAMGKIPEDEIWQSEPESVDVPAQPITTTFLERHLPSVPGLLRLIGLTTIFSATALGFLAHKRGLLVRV
ASSAY ENDPOINT: inhibition at 1 µM (%)
Give the value in % but do not write % after it.

What inhibition at 1 µM value was documented for this compound, CC1CCN(CCCCCCOc2cccc(C(=O)c3ccccc3)c2)CC1 ?
20

What inhibition at 1 µM value was documented for this compound, O=C(O)C(=O)O.O=C(c1ccccc1)c1ccccc1OCCCCCCN1CCCCCC1 ?
5

What inhibition at 1 µM value was documented for this compound, O=C(O)C(=O)O.O=C(c1ccccc1)c1ccccc1OCCCCCN1CCCCC1 ?
23

What inhibition at 1 µM value was documented for this compound, O=C(O)C(=O)O.O=C(c1ccccc1)c1ccccc1OCCCCCCN1CCCCC1 ?
12

What inhibition at 1 µM value was documented for this compound, CC1CCCN(CCCCCOc2ccccc2C(=O)c2ccccc2)C1.O=C(O)C(=O)O (stereo not shown) ?
9

What inhibition at 1 µM value was documented for this compound, O=C(c1ccc(Cl)cc1)c1ccc(OCCCCCCN2CCCCC2)cc1 ?
39

What inhibition at 1 µM value was documented for this compound, CC1CCCN(CCCCCCOc2ccccc2C(=O)c2ccccc2)C1.O=C(O)C(=O)O (stereo not shown) ?
8

What inhibition at 1 µM value was documented for this compound, CC1CCCN(CCCCCOc2ccc(C(=O)c3ccc(Cl)cc3)cc2)C1 (stereo not shown) ?
19

What inhibition at 1 µM value was documented for this compound, CC1CCCN(CCCCCCOc2ccc(C(=O)c3ccc(F)cc3)cc2)C1 (stereo not shown) ?
23

What inhibition at 1 µM value was documented for this compound, CC1CCN(CCCCCOc2ccc(C(=O)c3ccccc3)cc2)CC1 ?
27

What inhibition at 1 µM value was documented for this compound, O=C(c1ccccc1)c1cccc(OCCCCCCN2CCCCC2)c1 ?
15

What inhibition at 1 µM value was documented for this compound, O=C(c1ccc(Cl)cc1)c1ccc(OCCCCCCN2CCCCCC2)cc1 ?
30

What inhibition at 1 µM value was documented for this compound, CC1CCN(CCCCCCOc2ccc(C(=O)c3ccccc3)cc2)CC1 ?
22

What inhibition at 1 µM value was documented for this compound, O=C(c1ccc(F)cc1)c1ccc(OCCCCCCN2CCCCC2)cc1 ?
28

What inhibition at 1 µM value was documented for this compound, CC1CCCN(CCCCCOc2cccc(C(=O)c3ccccc3)c2)C1 (stereo not shown) ?
8

What inhibition at 1 µM value was documented for this compound, O=C(c1ccccc1)c1cccc(OCCCCCN2CCCCCC2)c1 ?
14

---

target: human H3R (Homo sapiens, UniProt Q9Y5N1); construct: expressed in transfected cells; host or cells: HEK293; assay: [3H]Nα-methylhistamine radioligand binding assay in HEK293 cells stably expressing hH3R
Sequence (Q9Y5N1 whole entry): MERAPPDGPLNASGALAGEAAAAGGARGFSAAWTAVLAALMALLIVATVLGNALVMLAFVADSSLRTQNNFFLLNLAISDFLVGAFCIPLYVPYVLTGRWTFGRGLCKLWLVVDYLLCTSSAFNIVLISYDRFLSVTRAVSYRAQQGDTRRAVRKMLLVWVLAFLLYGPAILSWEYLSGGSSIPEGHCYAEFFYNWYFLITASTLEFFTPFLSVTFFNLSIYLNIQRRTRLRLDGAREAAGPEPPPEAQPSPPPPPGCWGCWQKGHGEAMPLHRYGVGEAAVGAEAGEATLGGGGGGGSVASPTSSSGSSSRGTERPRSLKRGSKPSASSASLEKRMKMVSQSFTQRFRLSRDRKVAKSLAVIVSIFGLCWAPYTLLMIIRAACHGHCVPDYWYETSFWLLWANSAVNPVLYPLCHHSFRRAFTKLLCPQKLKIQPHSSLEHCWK
Listed next: entries and their corresponding pKi.
// returns pKi (minus log10 of molar concentration), number only

Some compounds with recorded pKi:
# COMPOUND, pKi
measured = [
    ("O=C(O)C(=O)O.O=C(c1ccccc1)c1ccccc1OCCCCCN1CCCCCC1 [Compound 26]", 6.52),
    ("O=C(c1ccc(F)cc1)c1ccc(OCCCCCN2CCCCCC2)cc1 [Compound 30]", 7.89),
    ("CC1CCN(CCCCCOc2ccc(C(=O)c3ccccc3)cc2)CC1 [Compound 23]", 7.17),
]

Query for human H3R (Homo sapiens, UniProt Q9Y5N1): what pKi does the record show for CC1CCN(CCCCCCOc2ccc(C(=O)c3ccccc3)cc2)CC1 [Compound 25] ?
7.28

Query for human H3R (Homo sapiens, UniProt Q9Y5N1): what pKi does the record show for O=C(O)C(=O)O.O=C(c1ccccc1)c1ccccc1OCCCCCCN1CCCCCC1 [Compound 31] ?
6.79

Origin of values: paper PMC9822066
